Tested on: SK-MEL-28 melanoma
Assay: NCI tumour cell line growth inhibition, 48 h
Can you tell me TGI for the items I'm about to list?

compound: Cc1cc(Cl)cc2c(N=Nc3ccc(S(N)(=O)=O)cc3)c(O)[nH]c12
measure: TGI
result: > 25 µM
--
compound: COc1ccc(C(CCC(C)=O)C(=O)O)cc1OC (stereo unspecified)
measure: TGI
result: > 100 µM
--
compound: CC[C@@H]1ON(C)[C@H]2CN(C)C(=O)[C@@H]12
measure: TGI
result: > 100 µM

Hey, can you go through the list below and give me TGI for every item?
1. COc1cccc2ccc(C(=O)c3ccccc3)nc12
2. Cc1cc(Nc2ccc(OCc3ccccc3)cc2)nc2cc(O)ccc12
3. O=C1/C(=C\c2ccc(F)cc2)CN(C(=O)c2ccccc2)C/C1=C\c1ccc(F)cc1

Return:
> 100 µM
8.19 µM
5.88 µM
